- run_description: Cytotoxicity against normal human lymphocytes(HL) (O.D.=0.114+/-0.01)
- study_conditions: read-out: TC50 (the source's name)
measured_endpoint: CC50 (µM)

1) O=c1c2cccn2c2ccccc2n1CCNC(=S)Nc1ccc(Br)cn1 | 800

###

- run_description: Selectivity index was determined in CEM-SS cells
- Format: functional
measured_endpoint: SI

1. O=c1c2cccn2c2cccc(F)c2n1CC/N=C(\S)Nc1ccc(Br)cn1 | >43
2. O=c1c2nccn2c2ccccc2n1CCNC(=S)Nc1ccc(Br)cn1 | >150
3. O=c1c2cccn2c2c(F)cccc2n1CCNC(=S)Nc1ccc(Br)cn1 | >110
4. Cc1cn([C@H]2C[C@H](N=[N+]=[N-])[C@@H](CO)O2)c(=O)[nH]c1=O [ZIDOVUDINE] | 526
5. O=c1c2cccn2c2c(F)cc(F)cc2n1CC/N=C(\S)Nc1ccc(Br)cn1 | >23

###

- tested_on: Human immunodeficiency virus type 1 reverse transcriptase (Human immunodeficiency virus 1, UniProt Q72547, K103N)
- run_description: Inhibition of HIV-1 Mutant HIV-1 RT enzymes containing the single amino acid substitution K103N
pKi: −log10 of the molar value.
measured_endpoint: pKi

1) O=c1c2nccn2c2ccccc2n1CCNC(=S)Nc1ccc(Br)cn1 | 6.62
2) O=c1c2cccn2c2ccccc2n1CCNC(=S)Nc1ccc(Br)cn1 | 7.00
3) S=C(NCCOc1nc2cc(Cl)ccc2n2cccc12)Nc1ccc(Br)cn1 | 6.68
4) Fc1cccc2c1nc(OCCNC(=S)Nc1ccc(Br)cn1)c1cccn12 | 6.46
5) O=c1c2cccn2c2ncccc2n1CCNC(=S)Nc1ccc(Br)cn1 | 6.60
6) O=c1c2cccn2c2ccc(F)cc2n1CC/N=C(\S)Nc1ccc(Br)cn1 | 6.19
7) Cc1cc2nc(OCCNC(=S)Nc3ccc(Br)cn3)c3cccn3c2cc1C | 6.35
8) O=c1c2cccn2c2ccc(Cl)cc2n1CCNC(=S)Nc1ccc(Br)cn1 | 6.82
9) O=c1c2cccn2c2c(F)cccc2n1CCNC(=S)Nc1ccc(Br)cn1 | 6.40
10) O=c1c2cccn2c2cccc(F)c2n1CC/N=C(\S)Nc1ccc(Br)cn1 | 6.80
11) O=c1n(CCNC(=S)Nc2ccc(Br)cn2)c2ccccc2c2ccnn12 | 7.68

###

- tested_on: Human immunodeficiency virus type 1 reverse transcriptase (Human immunodeficiency virus 1)
- run_description: Inhibition of HIV-1 wild-type RT
pKi: −log10 of the molar value.
Recorded pKi for the following molecules
measured_endpoint: pKi

1. O=c1c2cccn2c2ncccc2n1CCNC(=S)Nc1ccc(Br)cn1 | 8.05
2. O=c1c2cccn2c2c(F)cc(F)cc2n1CCNC(=S)Nc1ccc(Br)cn1 | 7.66
3. O=c1c2cccn2c2cccc(F)c2n1CC/N=C(\S)Nc1ccc(Br)cn1 | 8.05
4. S=C(NNc1nc2ccccc2n2cccc12)Nc1ccc(Br)cn1 | 5.72
5. O=c1c2cccn2c2c(F)cccc2n1CCNC(=S)Nc1ccc(Br)cn1 | 7.40
6. Fc1cccc2c1nc(OCCNC(=S)Nc1ccc(Br)cn1)c1cccn12 | 7.24
7. O=C(NNc1nc2ccccc2n2cccc12)c1cnccn1 | 6.72
8. O=c1c2cccn2c2ccc(Cl)cc2n1CCNC(=S)Nc1ccc(Br)cn1 | 7.70
9. O=c1c2nccn2c2ccccc2n1CCNC(=S)Nc1ccc(Br)cn1 | 6.60
10. O=C(NNc1nc2ccccc2n2cccc12)c1ccccn1 | 5.40
11. Cc1cc2nc(OCCNC(=S)Nc3ccc(Br)cn3)c3cccn3c2cc1C | 6.66
12. O=c1c2cccn2c2ccccc2n1CCNC(=S)Nc1ccc(Br)cn1 | 7.24
13. O=c1c2cccn2c2ccc(F)cc2n1CC/N=C(\S)Nc1ccc(Br)cn1 | 7.54
14. O=c1n(CCNC(=S)Nc2ccc(Br)cn2)c2ccccc2c2ccnn12 | 7.82

###

- System: Human immunodeficiency virus 1
- run_description: Concentration which produces a 50% survival of HIV-1 infected cells relative to uninfected control C8166 cells
- Assay type: functional, organism-based
- study_conditions: Human immunodeficiency virus 1, C8166
pEC50: −log10 of the molar value.
measured_endpoint: pEC50

1. CC(C)=CCN1Cc2c(Cl)ccc3[nH]c(=S)n(c23)C[C@@H]1C [TIVIRAPINE] | 7.52
2. S=C(NCCOc1nc2cc(Cl)ccc2n2cccc12)Nc1ccc(Br)cn1 | 7.60
3. Fc1cccc2c1nc(OCCNC(=S)Nc1ccc(Br)cn1)c1cccn12 | 7.70
4. O=c1c2cccn2c2ncccc2n1CCNC(=S)Nc1ccc(Br)cn1 | 6.91
5. O=c1c2cccn2c2c(F)cccc2n1CCNC(=S)Nc1ccc(Br)cn1 | 6.70
6. O=c1c2nccn2c2ccccc2n1CCNC(=S)Nc1ccc(Br)cn1 | 6.49

###

- Test system: Human immunodeficiency virus 1
- run_description: Concentration which produces a 50% survival of HIV-1 infected cells relative to uninfected control C8166 cells
- Assay type: functional, organism-based
- study_conditions: Human immunodeficiency virus 1, C8166
measured_endpoint: EC50 (nM)

1. O=c1c2cccn2c2ccc(Cl)cc2n1CCNC(=S)Nc1ccc(Br)cn1 | 61
2. O=c1c2cccn2c2cccc(F)c2n1CC/N=C(\S)Nc1ccc(Br)cn1 | 25
3. O=c1c2cccn2c2ccc(F)cc2n1CC/N=C(\S)Nc1ccc(Br)cn1 | 32
4. Cc1cn([C@H]2C[C@H](N=[N+]=[N-])[C@@H](CO)O2)c(=O)[nH]c1=O | 400
5. O=c1c2cccn2c2ccccc2n1CCNC(=S)Nc1ccc(Br)cn1 | 380

###

- tested_on: Human immunodeficiency virus type 1 reverse transcriptase (Human immunodeficiency virus 1, UniProt Q72547)
- run_description: Inhibition of HIV-1 Mutant HIV-1 RT enzymes containing the single amino acid substitution […]
Recorded Ki for the following compounds
measured_endpoint: Ki (nM)

1. O=c1c2cccn2c2ccccc2n1CCNC(=S)Nc1ccc(Br)cn1 | 105
2. O=c1c2cccn2c2c(F)cc(F)cc2n1CCNC(=S)Nc1ccc(Br)cn1 | 100
3. O=c1c2cccn2c2ccc(Cl)cc2n1CCNC(=S)Nc1ccc(Br)cn1 | 160
4. O=c1n(CCNC(=S)Nc2ccc(Br)cn2)c2ccccc2c2ccnn12 | 100
5. S=C(NCCOc1nc2cc(Cl)ccc2n2cccc12)Nc1ccc(Br)cn1 | 120
6. O=c1c2cccn2c2cccc(F)c2n1CC/N=C(\S)Nc1ccc(Br)cn1 | 170
7. O=c1c2cccn2c2c(F)cccc2n1CCNC(=S)Nc1ccc(Br)cn1 | 800

###

- Test system: C8166
- run_description: Concentration which results in 50% survival of uninfected untreated control C8166 cells (cytotoxicity of the compound)
- Assay type: functional, cell-based
- study_conditions: Homo sapiens
measured_endpoint: IC50 (µM)

1. O=c1c2cccn2c2ccc(Cl)cc2n1CCNC(=S)Nc1ccc(Br)cn1 | 7
2. O=C(NNc1nc2ccccc2n2cccc12)c1cnccn1 | 18
3. O=c1c2cccn2c2cccc(F)c2n1CC/N=C(\S)Nc1ccc(Br)cn1 | 200
4. O=c1c2nccn2c2ccccc2n1CCNC(=S)Nc1ccc(Br)cn1 | 88
5. O=c1c2cccn2c2c(F)cccc2n1CCNC(=S)Nc1ccc(Br)cn1 | 21
6. S=C(NCCOc1nc2cc(Cl)ccc2n2cccc12)Nc1ccc(Br)cn1 | 93
7. O=c1c2cccn2c2ncccc2n1CCNC(=S)Nc1ccc(Br)cn1 | 11
8. Fc1cccc2c1nc(OCCNC(=S)Nc1ccc(Br)cn1)c1cccn12 | 125
9. O=c1c2cccn2c2ccc(F)cc2n1CC/N=C(\S)Nc1ccc(Br)cn1 | 15

###

Recorded Ki for the following compounds
- tested_on: Human immunodeficiency virus type 1 reverse transcriptase (Human immunodeficiency virus 1, UniProt Q72547)
- run_description: Inhibition of HIV-1 Mutant HIV-1 RT enzymes containing the single amino acid substitution […]
measured_endpoint: Ki (µM)

1. Cc1cc2nc(OCCNC(=S)Nc3ccc(Br)cn3)c3cccn3c2cc1C | 0.5
2. O=c1c2cccn2c2ncccc2n1CCNC(=S)Nc1ccc(Br)cn1 | 0.095
3. O=c1c2cccn2c2ccc(F)cc2n1CC/N=C(\S)Nc1ccc(Br)cn1 | 0.7
4. Fc1cccc2c1nc(OCCNC(=S)Nc1ccc(Br)cn1)c1cccn12 | 0.15
5. O=C(NNc1nc2ccccc2n2cccc12)c1cnccn1 | 0.3
6. O=c1c2nccn2c2ccccc2n1CCNC(=S)Nc1ccc(Br)cn1 | 1

###

- Test system: C8166
- run_description: Concentration which produces a 50% survival of HIV-1 infected cells relative to uninfected control C8166 cell (in vitro anti-HIV activity)
- Format: functional, cell-based
- study_conditions: Homo sapiens
pEC50: −log10 of the molar value.
measured_endpoint: pEC50

1. O=C(NNc1nc2ccccc2n2cccc12)c1cnccn1 | 6.40

###

- tested_on: Human immunodeficiency virus type 1 reverse transcriptase (Human immunodeficiency virus 1, UniProt Q72547, Y181I)
- run_description: Inhibition of HIV-1 Mutant HIV-1 RT enzymes containing the single amino acid substitution Y181I
pKi: −log10 of the molar value.
// NOT MET strictly below 6 in pKi; MET otherwise

1) O=c1c2cccn2c2ccccc2n1CCNC(=S)Nc1ccc(Br)cn1 | NOT MET
2) O=c1c2cccn2c2ncccc2n1CCNC(=S)Nc1ccc(Br)cn1 | MET
3) O=c1n(CCNC(=S)Nc2ccc(Br)cn2)c2ccccc2c2ccnn12 | MET
4) O=c1c2cccn2c2cccc(F)c2n1CC/N=C(\S)Nc1ccc(Br)cn1 | MET

Origin of values: ChEMBL document CHEMBL1134834
